Data credit: the supplement of paper PMC6755084

B1: F1*; the commonest letter at each place (parent)
chain: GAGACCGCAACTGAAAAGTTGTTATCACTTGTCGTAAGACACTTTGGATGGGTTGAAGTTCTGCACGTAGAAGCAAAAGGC

Variants of: B1
Test: fraction ligated after 30 min (ligated reads / total reads); higher = more ligase activity
Conditions: with F1*sub RNA substrate (template-directed ligation), 42 °C
Property label: fraction ligated
Lab note: write the figure by itself, no unit.

Construct sequence: GAGACCGCAACTGAAAAGTTGTTAGCACTTGTCGTAAGACACTTTGGATGGGTTGAGGTTCTGCACGTAGAAGCAAAAGGC [T25G A57G]
Property label: fraction ligated
Reported value: 0.703
//
Construct sequence: GAGACCGCAACTGAAAAGTTGTTATCACTTGTCGTAATACACTTTCGATGGGTTGAAGTTCTGCACGTAGAAGCAAAAGGC [G38T G46C]
Property label: fraction ligated
Reported value: 0.787
//
Construct sequence: GAGACCGCAACTGAAAAGTTGTTATCGCTTGTCGTAAGACACTTTGGATTGGTTGAAGTTCTGCACGTAGAAGCAAAAGGC [A27G G50T]
Property label: fraction ligated
Reported value: 0.596

Next:
QUERY: Return value of fraction ligated for input GAGACCGCAACTGAAAAGTTGTTATGACTTGTCGTAAGTCACTTTGGATGGGTTGAAGTTCTGCACGTAGAAGCAAAAGGC [C26G A39T] , no commentary.
RESULT: 0.493
